experiment: Inhibition of Plasmodium falciparum falcipain-2 after 12 hrs by fluorescence spectroscopy-based on-bead assay; set-up: concentration or dose not given beside the values; details: concentration not given here
Peptide text beside a SMILES is read from it.

Molecule: CC[C@H](C)[C@H](NC(=O)[C@H](C)NC(=O)/C=C/C(=O)N[C@@H](C)C(=O)NCC(=O)N[C@@H](Cc1ccccc1)C(=O)O)C(=O)N[C@H](C(=O)N[C@H](C(N)=O)C(C)C)C(C)C (HELM PEPTIDE1{[C[C@H](NC(=O)/C=C/C(=O)[*:2])C(=O)NCC(=O)N[C@@H](Cc1ccccc1)C(=O)O].A.I.V.V.[am]}$$$$V2.0)
inhibition / %: 30
--
Molecule: CC[C@H](C)[C@H](NC(=O)[C@H](CNC(C)=O)NC(=O)/C=C/C(=O)N[C@@H](C)C(=O)NCC(=O)N[C@@H](Cc1ccccc1)C(=O)O)C(=O)N[C@@H](C)C(=O)N[C@H](C(N)=O)C(C)C (HELM PEPTIDE1{[C[C@H](NC(=O)/C=C/C(=O)[*:2])C(=O)NCC(=O)N[C@@H](Cc1ccccc1)C(=O)O].[O=C([C@H](CN[*:3])N[*:1])[*:2]].I.A.V.[am]}|PEPTIDE2{[ac]}$PEPTIDE1,PEPTIDE2,2:R3-1:R2$$$V2.0)
inhibition / %: 28
--
Molecule: CC(C)C[C@H](NC(=O)[C@@H](NC(=O)[C@H](Cc1ccccc1)NC(=O)/C=C/C(=O)N[C@@H](C)C(=O)NCC(=O)N[C@@H](Cc1ccccc1)C(=O)O)C1CCCCC1)C(=O)N[C@H](C(N)=O)C(C)C (HELM PEPTIDE1{[C[C@H](NC(=O)/C=C/C(=O)[*:2])C(=O)NCC(=O)N[C@@H](Cc1ccccc1)C(=O)O].F.[O=C([C@@H](N[*:1])C1CCCCC1)[*:2]].L.V.[am]}$$$$V2.0)
inhibition / %: 56

====

target: Rhodesain (Trypanosoma brucei rhodesiense); test: Inhibition of Trypanosoma brucei rhodesiense rhodesain after 12 hrs by fluorescence spectroscopy-based on-bead assay; design: concentration or dose not given beside the values; conditions: concentration not given here
Peptide text beside a SMILES is read from it.
inhibition: recorded values

Compound: CC(C)C[C@H](NC(=O)[C@H](Cc1ccccc1)NC(=O)/C=C/C(=O)NCC(=O)NCC(=O)N[C@@H](Cc1ccccc1)C(=O)O)C(=O)N[C@H](C(=O)N[C@H](C(N)=O)C(C)C)C(C)C (HELM PEPTIDE1{[O=C(/C=C/C(=O)[*:2])NCC(=O)NCC(=O)N[C@@H](Cc1ccccc1)C(=O)O].F.L.V.V.[am]}$$$$V2.0)
inhibition: 58%
//
Compound: CC[C@H](C)[C@H](NC(=O)[C@H](C)NC(=O)/C=C/C(=O)N[C@@H](C)C(=O)NCC(=O)N[C@@H](Cc1ccccc1)C(=O)O)C(=O)N[C@@H](C)C(=O)N[C@H](C(N)=O)C(C)C (HELM PEPTIDE1{[C[C@H](NC(=O)/C=C/C(=O)[*:2])C(=O)NCC(=O)N[C@@H](Cc1ccccc1)C(=O)O].A.I.A.V.[am]}$$$$V2.0)
inhibition: 9%
//
Compound: CC[C@H](C)[C@H](NC(=O)[C@H](CNC(C)=O)NC(=O)/C=C/C(=O)N[C@@H](C)C(=O)NCC(=O)N[C@@H](Cc1ccccc1)C(=O)O)C(=O)N[C@@H](C)C(=O)N[C@H](C(N)=O)C(C)C (HELM PEPTIDE1{[C[C@H](NC(=O)/C=C/C(=O)[*:2])C(=O)NCC(=O)N[C@@H](Cc1ccccc1)C(=O)O].[O=C([C@H](CN[*:3])N[*:1])[*:2]].I.A.V.[am]}|PEPTIDE2{[ac]}$PEPTIDE1,PEPTIDE2,2:R3-1:R2$$$V2.0)
inhibition: 26%
//
Compound: CC(C)C[C@H](NC(=O)[C@H](CC(N)=O)NC(=O)/C=C/C(=O)NCC(=O)NCC(=O)N[C@@H](Cc1ccccc1)C(=O)O)C(=O)N[C@@H](CC(C)C)C(=O)N[C@H](C(N)=O)C(C)C (HELM PEPTIDE1{[O=C(/C=C/C(=O)[*:2])NCC(=O)NCC(=O)N[C@@H](Cc1ccccc1)C(=O)O].N.L.L.V.[am]}$$$$V2.0)
inhibition: 71%
//
Compound: CC(C)[C@H](NC(=O)[C@@H](NC(=O)[C@@H](NC(=O)[C@H](Cc1ccccc1)NC(=O)/C=C/C(=O)N[C@@H](C)C(=O)NCC(=O)N[C@@H](Cc1ccccc1)C(=O)O)C1CCCCC1)C(C)C)C(N)=O (HELM PEPTIDE1{[C[C@H](NC(=O)/C=C/C(=O)[*:2])C(=O)NCC(=O)N[C@@H](Cc1ccccc1)C(=O)O].F.[O=C([C@@H](N[*:1])C1CCCCC1)[*:2]].V.V.[am]}$$$$V2.0)
inhibition: 49%
//
Compound: CC(=O)NC[C@H](NC(=O)/C=C/C(=O)N[C@@H](C)C(=O)NCC(=O)N[C@@H](Cc1ccccc1)C(=O)O)C(=O)N[C@H](C(=O)N[C@@H](CC(C)C)C(=O)N[C@H](C(N)=O)C(C)C)c1ccccc1 (HELM PEPTIDE1{[C[C@H](NC(=O)/C=C/C(=O)[*:2])C(=O)NCC(=O)N[C@@H](Cc1ccccc1)C(=O)O].[O=C([C@H](CN[*:3])N[*:1])[*:2]].[Phg].L.V.[am]}|PEPTIDE2{[ac]}$PEPTIDE1,PEPTIDE2,2:R3-1:R2$$$V2.0)
inhibition: 56%
//
Compound: CC(C)[C@H](NC(=O)[C@H](C)NC(=O)[C@H](Cc1ccccc1)NC(=O)[C@H](CC(N)=O)NC(=O)/C=C/C(=O)N[C@@H](C)C(=O)NCC(=O)N[C@@H](Cc1ccccc1)C(=O)O)C(N)=O (HELM PEPTIDE1{[C[C@H](NC(=O)/C=C/C(=O)[*:2])C(=O)NCC(=O)N[C@@H](Cc1ccccc1)C(=O)O].N.F.A.V.[am]}$$$$V2.0)
inhibition: 47%
//
Compound: CC(C)C[C@H](NC(=O)[C@H](Cc1ccccc1)NC(=O)/C=C/C(=O)NCC(=O)NCC(=O)N[C@@H](Cc1ccccc1)C(=O)O)C(=O)N[C@@H](C)C(=O)N[C@H](C(N)=O)C(C)C (HELM PEPTIDE1{[O=C(/C=C/C(=O)[*:2])NCC(=O)NCC(=O)N[C@@H](Cc1ccccc1)C(=O)O].F.L.A.V.[am]}$$$$V2.0)
inhibition: 71%
//
Compound: CC(=O)NC[C@H](NC(=O)/C=C/C(=O)N[C@@H](C)C(=O)NCC(=O)N[C@@H](Cc1ccccc1)C(=O)O)C(=O)N[C@@H](CC(C)C)C(=O)N[C@@H](CC(C)C)C(=O)N[C@H](C(N)=O)C(C)C (HELM PEPTIDE1{[C[C@H](NC(=O)/C=C/C(=O)[*:2])C(=O)NCC(=O)N[C@@H](Cc1ccccc1)C(=O)O].[O=C([C@H](CN[*:3])N[*:1])[*:2]].L.L.V.[am]}|PEPTIDE2{[ac]}$PEPTIDE1,PEPTIDE2,2:R3-1:R2$$$V2.0)
inhibition: 63%
//
Compound: CC(C)[C@H](NC(=O)[C@H](C)NC(=O)[C@H](Cc1ccccc1)NC(=O)[C@H](C)NC(=O)/C=C/C(=O)N[C@@H](C)C(=O)NCC(=O)N[C@@H](Cc1ccccc1)C(=O)O)C(N)=O (HELM PEPTIDE1{[C[C@H](NC(=O)/C=C/C(=O)[*:2])C(=O)NCC(=O)N[C@@H](Cc1ccccc1)C(=O)O].A.F.A.V.[am]}$$$$V2.0)
inhibition: 18%
//
Compound: CC[C@H](C)[C@H](NC(=O)[C@H](Cc1ccccc1)NC(=O)/C=C/C(=O)N[C@@H](C)C(=O)NCC(=O)N[C@@H](Cc1ccccc1)C(=O)O)C(=O)N[C@@H](CC(C)C)C(=O)N[C@H](C(N)=O)C(C)C (HELM PEPTIDE1{[C[C@H](NC(=O)/C=C/C(=O)[*:2])C(=O)NCC(=O)N[C@@H](Cc1ccccc1)C(=O)O].F.I.L.V.[am]}$$$$V2.0)
inhibition: 61%

====

molecular target: Rhodesain (Trypanosoma brucei rhodesiense) (UniProt Q95PM0); assay: Inhibition of Trypanosoma brucei rhodesiense rhodesain after 12 hrs by fluorescence spectroscopy-based on-bead assay; design: concentration or dose not given beside the values; conditions: concentration not given here
Sequence (Q95PM0 1-450): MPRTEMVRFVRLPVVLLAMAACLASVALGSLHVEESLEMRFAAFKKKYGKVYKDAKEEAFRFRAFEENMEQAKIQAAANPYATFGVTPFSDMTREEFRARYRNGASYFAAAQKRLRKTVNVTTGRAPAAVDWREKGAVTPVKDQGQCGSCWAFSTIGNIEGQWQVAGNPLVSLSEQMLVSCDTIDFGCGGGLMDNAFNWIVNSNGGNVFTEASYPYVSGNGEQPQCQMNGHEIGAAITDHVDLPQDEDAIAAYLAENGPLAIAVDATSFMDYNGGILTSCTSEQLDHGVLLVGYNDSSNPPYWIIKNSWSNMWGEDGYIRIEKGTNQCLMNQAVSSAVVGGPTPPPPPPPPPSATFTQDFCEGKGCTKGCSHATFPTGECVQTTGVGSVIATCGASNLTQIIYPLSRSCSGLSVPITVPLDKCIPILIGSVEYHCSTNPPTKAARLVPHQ
Peptide text beside a SMILES is read from it.
Property Measured: inhibition (%)

Compound: CC(C)[C@H](NC(=O)[C@@H](NC(=O)[C@H](Cc1ccccc1)NC(=O)[C@H](CC(N)=O)NC(=O)/C=C/C(=O)NCC(=O)NCC(=O)N[C@@H](Cc1ccccc1)C(=O)O)C(C)C)C(N)=O (HELM PEPTIDE1{[O=C(/C=C/C(=O)[*:2])NCC(=O)NCC(=O)N[C@@H](Cc1ccccc1)C(=O)O].N.F.V.V.[am]}$$$$V2.0)
Measured: 28
--
Compound: CC(C)[C@H](NC(=O)[C@H](C)NC(=O)[C@H](Cc1ccccc1)NC(=O)[C@H](CCC(N)=O)NC(=O)/C=C/C(=O)NCC(=O)NCC(=O)N[C@@H](Cc1ccccc1)C(=O)O)C(N)=O (HELM PEPTIDE1{[O=C(/C=C/C(=O)[*:2])NCC(=O)NCC(=O)N[C@@H](Cc1ccccc1)C(=O)O].Q.F.A.V.[am]}$$$$V2.0)
Measured: 41
--
Compound: CC[C@H](C)[C@H](NC(=O)[C@H](CCC(N)=O)NC(=O)/C=C/C(=O)N[C@@H](C)C(=O)NCC(=O)N[C@@H](Cc1ccccc1)C(=O)O)C(=O)N[C@H](C(=O)N[C@H](C(N)=O)C(C)C)C(C)C (HELM PEPTIDE1{[C[C@H](NC(=O)/C=C/C(=O)[*:2])C(=O)NCC(=O)N[C@@H](Cc1ccccc1)C(=O)O].Q.I.V.V.[am]}$$$$V2.0)
Measured: 38
